# credit: patent US10322140B2

# assayed.system: PAR-1 receptor (Homo sapiens (Human), UniProt P25116)
# Sequence (P25116 22-425): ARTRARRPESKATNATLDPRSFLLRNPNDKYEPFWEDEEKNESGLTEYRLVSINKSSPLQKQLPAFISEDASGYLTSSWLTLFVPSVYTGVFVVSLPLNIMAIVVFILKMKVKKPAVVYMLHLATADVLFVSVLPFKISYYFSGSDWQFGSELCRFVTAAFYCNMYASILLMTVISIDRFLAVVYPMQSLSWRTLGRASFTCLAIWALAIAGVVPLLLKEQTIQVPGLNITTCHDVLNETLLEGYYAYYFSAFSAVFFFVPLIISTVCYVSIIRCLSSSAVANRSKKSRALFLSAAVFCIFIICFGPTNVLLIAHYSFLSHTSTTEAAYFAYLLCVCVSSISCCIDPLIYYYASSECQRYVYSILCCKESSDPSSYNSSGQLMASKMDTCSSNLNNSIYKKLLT
# assay.text: PAR-1 FLIPR Assay
# experimental.context: HEK 293 cells, calcium signal after PAR-1 selective receptor-activating peptide at EC80
# Method: This assay measures the potency of the inventive compounds as PAR-1 receptor antagonists. Frozen HEK 293 Cells were plated in 384-well PDL coated plates at 12000 cells/well in 50 uL of DMEM media containing 10% FBS, pen/strep/L-Glutamine and non-essential amino acids, incubated overnight at 37° C./5% CO2. […] The FLIPR was read at an excitation wavelength of 480 nm and an emission wavelength of 535 nm, and performed 60 scans over a 1-2 min reading time. […]
recorded.endpoint: pIC50
The quantity pIC50 is defined as the negative base-10 logarithm of the molar concentration.

Some compounds with recorded pIC50:
Quick check: pIC50 of C[C@H]1OC(=O)[C@]2(c3cc[nH]n3)CC(F)(F)[C@@H](C)[C@H](/C=C/c3ccc(-c4ccccc4C#N)cn3)[C@H]12 ?
9.00

And for Cc1cccc(-c2ccc(/C=C/[C@@H]3[C@@H]4[C@@H](C)OC(=O)[C@]4(c4nnc(-c5ccccc5)o4)CC(F)(F)[C@H]3C)nc2)c1C#N ?
8.30

And for Cc1nnc([C@@]23CC(F)(F)[C@@H](C)[C@H](/C=C/c4ccc(-c5cccc(C)c5C#N)cn4)[C@@H]2[C@@H](C)OC3=O)o1 ?
8.61

---
Quick check: pIC50 of C[C@H]1OC(=O)[C@]2(c3cc(C(C)(C)C)n(C)n3)CC(F)(F)[C@@H](C)[C@H](/C=C/c3ccc(-c4ccccc4C#N)cn3)[C@H]12 ?
7.60

And for C[C@H]1OC(=O)[C@]2(c3nnc(N)o3)CC(F)(F)[C@@H](C)[C@H](/C=C/c3ccc(-c4ccccc4C#N)cn3)[C@H]12 ?
8.51

And for Cc1cccc(-c2ccc(/C=C/[C@@H]3[C@@H]4[C@@H](C)OC(=O)[C@]4(c4nnc(C5CC5)o4)CC(F)(F)[C@H]3C)nc2)c1C#N ?
8.68
